Provenance of the data: PubChem BioAssay (Tox21)

Assay: qHTS assay to identify small molecule antagonists of the sonic hedgehog signaling (Shh) pathway - cell viability counter screen (AID 1259367); further: on the % scale 0 is the no-effect control and ±100 the full control effect; nearly all actives have a fitted effect of over 55% in size
Conditions: NIH/3T3 Gli1-Luc viability, CellTiter-Fluor, 24 h; series mostly up to 92.4 µM
Text: National Center for Advancing Translational Sciences [NCATS] NIH Chemical Genomics Center [NCGC] U.S. Environmental Protection Agency [EPA] National Institutes of Environmental Health Sciences [NIEHS] National Toxicology Program [NTP] U.S. Food and Drug Administration [FDA] The sonic hedgehog (Shh) pathway is essential for normal embryonic development. Dysregulation of the Shh pathway can cause severe developmental defects in organs. […]
Inconclusive results are not listed. Activity calls are given as the source filed them. The call rests on the fitted dose curve; in most records, active means well fitted cell-killing curve with a large enough effect in the repeat runs; inconclusive means weak or mixed curves, or effect the other way; inactive means no such curve, though single readings can be large or run the other way.
Form entry, call: pick from active, inactive

Use the examples below as a reference point.
{"Molecule": "CNC(=O)Oc1cccc2c1OC(C)(C)C2", "Class Label": "inactive"}
{"Molecule": "C[N+](C)(C)C", "Class Label": "inactive"}
{"Molecule": "Clc1ccc(C(Cl)(Cl)Cl)cc1", "Class Label": "inactive"}

Query: recorded result category for CCCCCCCCCC(CC)c1ccc(S(=O)(=O)O)cc1 (stereo not given) in this test
Response: inactive

Query: Do the same for `N#CCCCCC#N` please
Response: inactive

Query: Do the same for `CC(C)(O)C#N` please
Response: inactive

Query: Do the same for `C[C@]12CCC(=O)C=C1CC[C@@H]1[C@@H]2CC[C@@]2(C)[C@H]1CC[C@]2(C)O` please
Response: inactive

Query: Do the same for `CC1(C)Cc2cccc(O)c2O1` please
Response: inactive

Query: Do the same for `CC1=C(C(=O)Nc2ccccc2)SCCO1` please
Response: inactive

Query: Do the same for `ClCc1ccccn1` please
Response: inactive

Query: Do the same for `COC(=O)Nc1nc2ccccc2[nH]1` please
Response: inactive

Query: Do the same for `CCOP(=O)(OCC)OCC` please
Response: inactive

Query: Do the same for CC(C)=CC1C(C(=O)OCN2C(=O)C3=C(CCCC3)C2=O)C1(C)C (stereo not given) please
Response: inactive

Query: Do the same for `Nc1ccc2ccccc2c1` please
Response: inactive

Query: Do the same for `Cl` please
Response: inactive

Query: Do the same for CCCCC(C#N)(Cn1cncn1)c1ccc(Cl)cc1 (stereo not given) please
Response: inactive

Query: Do the same for `N#Cc1cccnc1` please
Response: inactive

Query: Do the same for `O=C(O)CF` please
Response: inactive

Query: Do the same for `COc1ccc(O)c(C(C)(C)C)c1` please
Response: inactive

Query: Do the same for CC(C)=CC1C(C(=O)OCc2cccc(Oc3ccccc3)c2)C1(C)C (stereo not given) please
Response: inactive

====

Assay: qHTS assay to identify small molecule antagonists of the peroxisome proliferator-activated receptor delta (PPARd) signaling pathway - cell viability counter screen (AID 743213); further: on the % scale 0 is the no-effect control and ±100 the full control effect; nearly all actives have a fitted effect of over 50% in size
Conditions: PPARd-bla HEK293H viability, CellTiter-Glo luminescence, 17 h; series mostly up to 62 µM
Inconclusive results are not listed. Calls of active or inactive are those of the source. Calls come from the whole dose curve; as a rule, active = well fitted cell-killing curve with a large enough effect in the repeat runs; inconclusive = weak or mixed curves; inactive = no such curve, though single readings can be large or run the other way.
Form entry, call: pick from TRUE for active, FALSE for inactive

{"Compound": "O=NN(c1ccccc1)c1ccccc1", "Class Label": "FALSE"}

In the following, a different compound is considered.
Query: recorded result category for `CCCCCCCCCCCCCl` in this test
Response: FALSE

====

Test: qHTS assay to identify small molecule agonists of the RXR signaling pathway - cell viability counter screen (AID 1159529);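 further: HEK 293T cells carrying an RXR-alpha UAS beta-lactamase reporter; on the % scale 0 is the no-effect control and ±100 the full control effect; nearly all actives have a fitted effect of over 50% in size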
Settings: RXR-alpha-bla HEK293T viability, CellTiter-Glo, 16 h; series mostly up to 76.8 µM
Results filed as inconclusive are left out. Calls of active or inactive are those of the source. Calls follow the shape of the dose curve; as a rule, active = well fitted cell-killing curve with a large enough effect in the repeat runs; inconclusive = weak or mixed curves, or effect the other way; inactive = no such curve, though single readings can be large or run the other way.
Form entry, call: pick from active, inactive

{"Molecule": "CC(C)=CC1C(C(=O)OCc2cccc(Oc3ccccc3)c2)C1(C)C (configuration not stated)", "Class Label": "inactive"}
{"Molecule": "ClC(Cl)=C(Cl)C(Cl)=C(Cl)Cl", "Class Label": "inactive"}
{"Molecule": "C=CC(Cl)CCl (configuration not stated)", "Class Label": "inactive"}
{"Molecule": "COP(=S)(OC)Oc1ccc(S(=O)(=O)N(C)C)cc1", "Class Label": "inactive"}
{"Molecule": "N#Cc1cccnc1", "Class Label": "inactive"}
{"Molecule": "Clc1cccc(Cl)c1", "Class Label": "inactive"}
{"Molecule": "CCOS(=O)(=O)OCC", "Class Label": "inactive"}
{"Molecule": "CNC(=S)S", "Class Label": "inactive"}

Query: recorded result category for `Nc1ccc2ccccc2c1` in this test
Response: inactive

Query: Do the same for COP(=O)(NC(C)=O)SC (configuration not stated) please
Response: inactive

Query: Do the same for `CCOP(=O)(OCC)OCC` please
Response: inactive

Query: Do the same for `CC(C)(O)C(=O)Nc1ccc([N+](=O)[O-])c(C(F)(F)F)c1` please
Response: inactive

Query: Do the same for `CN(C)P(=O)(N(C)C)N(C)C` please
Response: inactive

Query: Do the same for `ClC(Cl)(Cl)c1ccccc1` please
Response: inactive

Query: Do the same for `c1ccc2c(c1)Nc1ccccc1S2` please
Response: inactive

Query: Do the same for `COP(=S)(OC)SCn1nnc2ccccc2c1=O` please
Response: inactive

Query: Do the same for `Clc1ccc(C(Cl)(Cl)Cl)cc1` please
Response: inactive

Query: Do the same for `CC(C)(O)C#N` please
Response: inactive

====

Test: qHTS assay to identify small molecule antagonists of the sonic hedgehog signaling (Shh) pathway (AID 1259369); further: nearly all actives have a fitted effect of over 45% in size
Conditions: NIH/3T3 Gli1-Luc reporter, Shh antagonist, luminescence 24 h; series mostly up to 92.4 µM
Records with an inconclusive call do not appear. Calls of active or inactive are those of the source. Calls follow the shape of the full dose curve.
Form entry, call: pick from active, inactive

Use the examples below as a reference point.
{"Compound": "CSc1nc(NC(C)C)nc(NC(C)C)n1", "Class Label": "active"}
{"Compound": "C=C(C)C#N", "Class Label": "inactive"}
{"Compound": "C[N+](C)(C)CC(=O)[O-]", "Class Label": "inactive"}
{"Compound": "CS(=O)(=O)NC(=O)c1cc(Oc2ccc(C(F)(F)F)cc2Cl)ccc1[N+](=O)[O-]", "Class Label": "inactive"}
{"Compound": "CCOP(=O)(O)OCC (tested in a mixture with another compound)", "Class Label": "active"}

Query: recorded result category for `O=C1C(Cl)=C(Cl)C(=O)c2ccccc21` in this test
Response: active

Query: Do the same for OC(c1ccc(Cl)cc1)(c1cncnc1)c1ccccc1Cl (stereo not drawn) please
Response: inactive

Query: Do the same for `C[N+](C)(C)CC(=O)O` please
Response: inactive

Query: Do the same for `CNC(=S)S` please
Response: inactive

Query: Do the same for `O=C(O)CF` please
Response: inactive

Query: Do the same for `Cc1cccc(N=Nc2ccc(N(C)C)cc2)c1` please
Response: inactive

Query: Do the same for CCCCC(C#N)(Cn1cncn1)c1ccc(Cl)cc1 (stereo not drawn) please
Response: inactive

====

Target: Estrogen receptor (Homo sapiens)
Assay: qHTS assay to identify small molecule antagonists of the estrogen receptor alpha (ER-alpha) signaling pathway (AID 743069); further: on the % scale 0 is the no-effect control and ±100 the full control effect
Details: HEK293 ER-alpha-UAS-bla, beta-lactamase ratio, antagonist mode; series mostly up to 69.4 µM
Excerpt: National Center for Advancing Translational Sciences [NCATS] NIH Chemical Genomics Center [NCGC] U.S. Environmental Protection Agency [EPA] National Institutes of Environmental Health Sciences [NIEHS] National Toxicology Program [NTP] U.S. Food and Drug Administration [FDA] Estrogen receptor (ER), a nuclear hormone receptor, plays an important role in development, metabolic homeostasis and reproduction. […]
Records with an inconclusive call do not appear. The source made the active and inactive calls. Calls follow the shape of the dose curve; as a rule, active = well fitted curve in the direction sought with a large enough effect in the signal ratio in the repeat runs (not every such curve was filed as active); inconclusive = weak or mixed curves, or effect the other way; inactive = no such curve, though single readings can be large or run the other way; the % refers to the signal ratio.
Form entry, call: pick from 1 for active, 0 for inactive

Use the examples below as a reference point.
{"Compound": "Cn1c(-c2ccccc2)cc(-c2ccccc2)[n+]1C", "Class Label": 0}
{"Compound": "CC(C)=CC1C(C(=O)OCc2cccc(Oc3ccccc3)c2)C1(C)C (stereo not given)", "Class Label": 0}
{"Compound": "C[C@]12CCC(=O)C=C1CC[C@@H]1[C@@H]2CC[C@@]2(C)[C@H]1CC[C@]2(C)O", "Class Label": 0}
{"Compound": "C=C(C)C#N", "Class Label": 0}
{"Compound": "CN(C)c1nc(=O)n(C2CCCCC2)c(=O)n1C", "Class Label": 0}

Query: recorded result category for CCN(CC)C(=O)C(C)Oc1cccc2ccccc12 (stereo not given) in this test
Response: 0

Query: Do the same for `O=NN(c1ccccc1)c1ccccc1` please
Response: 0

====

Assay: qHTS RealTime-Glo MT Cell Viability Assay in HEK293 cells - 32 hour (AID 1224868); further: nearly all actives have a fitted effect of over 50% in size
Conditions: RealTime-Glo luminescence; series mostly up to 76.8 µM
Records with an inconclusive call do not appear. Activity calls are given as the source filed them. Calls come from the whole dose curve; as a rule, active = well fitted cell-killing curve with a large enough effect in the repeat runs; inconclusive = weak or mixed curves, or effect the other way; inactive = flat fitted curve, though single readings scatter.
Form entry, call: pick from active, inactive

Use the examples below as a reference point.
{"Molecule": "COc1ccc(C=O)cc1OC", "Class Label": "inactive"}
{"Molecule": "CNC(=O)CSP(=S)(OC)OC", "Class Label": "inactive"}
{"Molecule": "CS(=O)(=O)NC(=O)c1cc(Oc2ccc(C(F)(F)F)cc2Cl)ccc1[N+](=O)[O-]", "Class Label": "inactive"}
{"Molecule": "CCCCC(C#N)(Cn1cncn1)c1ccc(Cl)cc1 (centres undefined)", "Class Label": "inactive"}
{"Molecule": "CCCCCCCCCCCCCl", "Class Label": "inactive"}
{"Molecule": "O=C1Nc2ccc(Cl)cc2C(c2ccccc2)=NC1O (centres undefined)", "Class Label": "inactive"}
{"Molecule": "CCOP(=S)(OCC)SCn1c(=O)oc2cc(Cl)ccc21", "Class Label": "active"}
{"Molecule": "C[C@]12CC[C@H]3[C@@H](CCC4=CC(=O)CC[C@@H]43)[C@@H]1CC[C@@H]2O", "Class Label": "inactive"}

Query: recorded result category for `OCCOCCO` in this test
Response: inactive

Query: Do the same for `Nc1ccc2ccccc2c1` please
Response: inactive

Query: Do the same for `Cc1cc(Cl)ccc1N=CN(C)C` please
Response: inactive

Query: Do the same for CCC1(c2ccc(N)cc2)CCC(=O)NC1=O (centres undefined) please
Response: inactive

Query: Do the same for `NN=C(N)N` please
Response: inactive

Query: Do the same for `COc1ccc(O)c(C(C)(C)C)c1` please
Response: inactive
